For each entry below, report its pIC50 value.
Molecular target: CCK2R (Homo sapiens)
Construct: expressed in transfected cells; host or cells: HEK 293T cells
Sequence (P32239 1-447): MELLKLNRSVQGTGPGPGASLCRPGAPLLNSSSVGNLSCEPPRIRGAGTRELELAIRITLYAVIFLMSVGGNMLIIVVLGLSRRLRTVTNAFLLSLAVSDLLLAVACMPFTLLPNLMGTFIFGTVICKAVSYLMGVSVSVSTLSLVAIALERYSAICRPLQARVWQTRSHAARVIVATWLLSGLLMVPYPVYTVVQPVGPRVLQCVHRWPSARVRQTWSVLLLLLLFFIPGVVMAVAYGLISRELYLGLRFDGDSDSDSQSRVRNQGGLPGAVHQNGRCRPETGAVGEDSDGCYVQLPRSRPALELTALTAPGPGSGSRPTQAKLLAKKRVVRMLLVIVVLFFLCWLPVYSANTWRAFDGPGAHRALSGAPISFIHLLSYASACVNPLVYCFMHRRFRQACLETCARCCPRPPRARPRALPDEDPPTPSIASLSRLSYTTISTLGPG
Assay: Competitive binding (FACS) on CCK2R-transfected HEK 293T cells with Cy5-labeled F11N derivative
Details: HEK 293T transfected, Cy5-labeled F11N derivative competitive ligand (Table 4); read-out: CCK2R IC50
Scale for pIC50: -log10 of concentration given in mol/L; no unit attached.

Please tell me: pIC50 of C[C@@H](O)[C@H](NC(=O)[C@@H]1CSSC[C@H](NC(=O)[C@@H](Cc2ccccc2)C(=O)C(=O)COCCOCCNC(=O)[C@H](CCCCCC(=O)COCCOCCNC(=O)CC[C@H](NC(=O)[C@H](CN)NC(=O)c2cccc(NC(=O)NN3CC(C4CCCCC4)c4ccccc4N(CC(=O)C(C)(C)C)C3=O)c2)C(=O)O)NC(=O)CN2CCN(CC(=O)O)CCN(CC(=O)O)CCN(CC(=O)O)CC2)C(=O)N[C@@H](Cc2ccc(O)cc2)C(=O)N[C@H](Cc2c[nH]c3ccccc23)C(=O)N[C@@H](CCCCN)C(=O)N[C@@H]([C@@H](C)O)C(=O)C1)C(=O)O (stereo partly shown) , system CCK2R (Homo sapiens)?
7.52

Please tell me: pIC50 of C[C@@H](O)[C@H](NC(=O)[C@@H]1CSSC[C@H](NC(=O)[C@@H](Cc2ccccc2)NC(=O)COCCOCCNC(=O)COCCOCCNC(=O)CC[C@H](NC(=O)[C@H](CCCCNC(=O)c2cccc(NC(=O)CC3CN(C4CCCCC4)c4ccccc4N(CC(=O)C(C)(C)C)C3=O)c2)NC(=O)CN2CCN(CC(=O)O)CCN(CC(=O)O)CCN(CC(=O)O)CC2)C(=O)O)C(=O)N[C@@H](Cc2ccc(O)cc2)C(=O)N[C@H](Cc2c[nH]c3ccccc23)C(=O)N[C@@H](CCCCN)C(=O)N[C@@H]([C@@H](C)O)C(=O)N1)C(=O)O (stereo partly shown) , system CCK2R (Homo sapiens)?
7.25

Please tell me: pIC50 of C[C@@H](O)[C@H](NC(=O)[C@@H]1CSSC[C@H](NC(=O)[C@@H](Cc2ccccc2)C(=O)C(=O)COCCOCCNC(=O)[C@H](CCCCCC(=O)COCCOCCNC(=O)COCCOCCNC(=O)C(Cc2ccc(C(=O)O)cc2)NC(=O)c2cccc(NC(=O)NN3CC(C4CCCCC4)c4ccccc4N(CC(=O)C(C)(C)C)C3=O)c2)NC(=O)CN2CCN(CC(=O)O)CCN(CC(=O)O)CCN(CC(=O)O)CC2)C(=O)N[C@@H](Cc2ccc(O)cc2)C(=O)N[C@H](Cc2c[nH]c3ccccc23)C(=O)N[C@@H](CCCCN)C(=O)N[C@@H]([C@@H](C)O)C(=O)C1)C(=O)O (stereo partly shown) , system CCK2R (Homo sapiens)?
7.62

Please tell me: pIC50 of CCCC[C@H](NC(=O)[C@H](Cc1c[nH]c2ccccc12)NC(=O)CNC(=O)[C@H](Cc1ccc(O)cc1)NC(=O)[C@H](C)NC(=O)[C@@H](CCC(=O)O)NC(=O)[C@@H](CCC(=O)O)NC(=O)[C@@H](CCC(=O)O)NC(=O)[C@@H](CCC(=O)O)NC(=O)[C@@H](CCC(=O)O)NC(=O)[C@@H](CCC(=O)O)NC(=O)CN1CCN(CC(=O)O)CCN(CC(=O)O)CCN(CC(=O)O)CC1)C(=O)N[C@@H](CC(=O)O)C(=O)N[C@@H](Cc1ccccc1)C(N)=O [Compound C5, reference compound] , system CCK2R (Homo sapiens)?
7.59
